organism: Sus scrofa; test: Inhibition of phosphodiesterase (peak-2) isolated from pig coronary artery assessed as inhibition of cAMP hydrolysis at 10^-4 M using 1 uM cAMP substrate in presence of 3% Me2SO
READOUT KIND: inhibition (%)

(1) CC(C)Cn1c(=O)n(C)c(=O)c2c1ncn2CCc1ccccc1
(2) CC(C)Cn1cc(NCc2ccccc2)c(=O)n(C)c1=O
(3) Cn1c(N)c(NCc2ccccc2)c(=O)n(C)c1=O
(4) CC(C)Cn1c(N)c(NCc2ccccc2)c(=O)n(C)c1=O
Could you please sort these 4 entries by inhibition from high to low? Please respond with the labels ordered as the question requires.
1, 3, 4, 2
(1: 41%, 3: 15%, 4: 9%, 2: 6%)

----------
species: Sus scrofa; test: Inhibition of phosphodiesterase (peak-2) isolated from pig coronary artery assessed as inhibition of cAMP hydrolysis at 10^-4 M using 1 uM cAMP substrate in presence of 3% Me2SO
READOUT KIND: inhibition (%)

COc1cc(Cn2cnc3c2c(=O)n(C)c(=O)n3CC(C)C)cc(OC)c1OC: 31
CC(C)Cn1c(=O)n(C)c(=O)c2c1ncn2Cc1ccncc1: 30
CC(C)Cn1c(=O)n(C)c(=O)c2c1ncn2Cc1ccc([N+](=O)[O-])cc1: 44
CC(C)CCn1cnc2c1c(=O)n(C)c(=O)n2CC(C)C: 36
